- Test system: U2OS
- EXPERIMENTAL DETAILS: normalized growth rate inhibition value (GR) relative to untreated cells (GR value (dimensionless, 1 = untreated growth)); higher = less growth inhibition
- CONDITION CONTEXT: 3.16456 µM; 72 h
EXPERIMENTAL READOUT: normalized growth rate inhibition value
// keep it numeric: no unit symbol after the value

CO[C@H]1C[C@@H]2CC[C@@H](C)[C@@](O)(O2)C(=O)C(=O)N2CCCC[C@H]2C(=O)O[C@H]([C@H](C)C[C@@H]2CC[C@@H](OCCO)[C@H](OC)C2)CC(=O)[C@H](C)/C=C(\C)[C@@H](O)[C@@H](OC)C(=O)[C@H](C)C[C@H](C)/C=C/C=C/C=C/1C [Everolimus]	0.524
CC[C@@]1(O)C(=O)OCc2c1cc1n(c2=O)Cc2cc3c(CN(C)C)c(O)ccc3nc2-1 [Topotecan]	-0.147
N.N.[Cl][Pt][Cl] [Cisplatin]	0.248
NC(=O)Nc1cc(-c2cccc(F)c2)sc1C(=O)N[C@H]1CCCNC1 [AZD7762]	-0.622
CC(=O)O[C@@]12CO[C@@H]1C[C@H](O)[C@@]1(C)C(=O)[C@H](O)C3=C(C)[C@@H](OC(=O)[C@H](O)[C@@H](NC(=O)OC(C)(C)C)c4ccccc4)C[C@@](O)([C@@H](OC(=O)c4ccccc4)[C@H]21)C3(C)C [Docetaxel]	-0.251

// next item, normalized growth rate inhibition value requested
Fill in reported normalized growth rate inhibition value for this entry: COc1cccc2c1C(=O)c1c(O)c3c(c(O)c1C2=O)C[C@@](O)(C(=O)CO)C[C@@H]3O[C@H]1C[C@H](N)[C@H](O)[C@H](C)O1 [Doxorubicin]
-0.501

###

- Test system: U2OS
- EXPERIMENTAL DETAILS: normalized growth rate inhibition value (GR) relative to untreated cells (GR value (dimensionless, 1 = untreated growth)); higher = less growth inhibition
- CONDITION CONTEXT: 0.0100433 µM; 72 h
EXPERIMENTAL READOUT: normalized growth rate inhibition value

CC(C)[C@@H]1NC(=O)[C@H](C)OC(=O)[C@@H](C(C)C)NC(=O)[C@@H](C(C)C)OC(=O)[C@H](C(C)C)NC(=O)[C@H](C)OC(=O)[C@@H](C(C)C)NC(=O)[C@@H](C(C)C)OC(=O)[C@H](C(C)C)NC(=O)[C@H](C)OC(=O)[C@@H](C(C)C)NC(=O)[C@@H](C(C)C)OC1=O [Valinomycin]	0.171
Cc1nn(C)c(COc2ccc(N3CCN(S(=O)(=O)N(C)C)CC3)cc2)c1-c1cccc2c(CCCOc3cccc4ccccc34)c(C(=O)O)n(CCN3CCOCC3)c12	0.967
Cc1nc(Nc2ncc(C(=O)Nc3c(C)cccc3Cl)s2)cc(N2CCN(CCO)CC2)n1 [Dasatinib]	0.998

Fill in reported normalized growth rate inhibition value for this entry: NC(=O)Nc1cc(-c2cccc(F)c2)sc1C(=O)N[C@H]1CCCNC1 [AZD7762]
1.19

Fill in reported normalized growth rate inhibition value for this entry: CCN1CCN(Cc2ccc(Nc3ncc(F)c(-c4cc(F)c5nc(C)n(C(C)C)c5c4)n3)nc2)CC1 [Abemaciclib]
0.854

Fill in reported normalized growth rate inhibition value for this entry: Cc1nc(-c2cn3c(n2)-c2ccc(-c4cnn(C(C)(C)C(N)=O)c4)cc2OCC3)n(C(C)C)n1 [Taselisib]
0.852

Fill in reported normalized growth rate inhibition value for this entry: CC[C@@]1(O)C(=O)OCc2c1cc1n(c2=O)Cc2cc3c(CN(C)C)c(O)ccc3nc2-1 [Topotecan]
0.698

Fill in reported normalized growth rate inhibition value for this entry: CC(=O)O[C@@]12CO[C@@H]1C[C@H](O)[C@@]1(C)C(=O)[C@H](O)C3=C(C)[C@@H](OC(=O)[C@H](O)[C@@H](NC(=O)OC(C)(C)C)c4ccccc4)C[C@@](O)([C@@H](OC(=O)c4ccccc4)[C@H]21)C3(C)C [Docetaxel]
0.0565

Fill in reported normalized growth rate inhibition value for this entry: Cc1cc(C(C)Nc2ccccc2)c2nc(N3CCOCC3)cc(=O)n2c1 (stereo not drawn) [TGX221]
1.04

###

- Tested on: U2OS
- EXPERIMENTAL DETAILS: normalized growth rate inhibition value (GR) relative to untreated cells (GR value (dimensionless, 1 = untreated growth)); higher = less growth inhibition
- CONDITION CONTEXT: 0.0316 µM; 72 h
EXPERIMENTAL READOUT: normalized growth rate inhibition value
// keep it numeric: no unit symbol after the value

CNc1ccc2oc(C[C@H]3O[C@@]4(CC[C@H]3C)O[C@H]([C@H](C)C(=O)c3ccc[nH]3)[C@H](C)C[C@H]4C)nc2c1C(=O)O	1.01
C[C@H]1[C@H](OC(=O)CCC(=O)O)O[C@@H]2O[C@@]3(C)CC[C@H]4[C@H](C)CC[C@@H]1[C@@]24OO3 [Artesunate]	0.827
COC(=O)c1ccc([C@H]2c3[nH]c4ccccc4c3C[C@H](C(=O)OC)N2C(=O)CCl)cc1 [RSL3]	0.96
CC[C@]1(O)C[C@H]2CN(CCc3c([nH]c4ccccc34)[C@@](C(=O)OC)(c3cc4c(cc3OC)N(C=O)[C@H]3[C@@](O)(C(=O)OC)[C@H](OC(C)=O)[C@]5(CC)C=CCN6CC[C@]43[C@@H]65)C2)C1 [Vincristine]	0.0808
O=C(O)CCNc1cc(N2CCc3ccccc3CC2)nc(-c2ccccn2)n1 [GSKJ1]	0.985
CC(C)Oc1ccc(-c2ccccc2)cc1-n1c(CN2CCN(C(=O)COc3ccc(Cl)cc3)CC2)nc2ccccc2c1=O [Erastin 2]	0.863

// next item, normalized growth rate inhibition value requested
Fill in reported normalized growth rate inhibition value for this entry: CN(C)/N=N/c1[nH]cnc1C(N)=O [Dacarbazine]
1.01

###

- Tested on: U2OS
- EXPERIMENTAL DETAILS: fractional viability (live cells / total cells); higher = less cell death
- CONDITION CONTEXT: 0.100289 µM; 72 h
EXPERIMENTAL READOUT: fractional viability
// keep it numeric: no unit symbol after the value

NC(=O)Nc1cc(-c2cccc(F)c2)sc1C(=O)N[C@H]1CCCNC1	0.894

Fill in reported fractional viability for this entry: N.N.[Cl][Pt][Cl] [Cisplatin]
0.988

Fill in reported fractional viability for this entry: Cc1cc(Nc2ncc(Cl)c(Nc3ccccc3S(=O)(=O)C(C)C)n2)c(OC(C)C)cc1C1CCNCC1
0.989

Fill in reported fractional viability for this entry: CO[C@H]1C[C@@H]2CC[C@@H](C)[C@@](O)(O2)C(=O)C(=O)N2CCCC[C@H]2C(=O)O[C@H]([C@H](C)C[C@@H]2CC[C@@H](OCCO)[C@H](OC)C2)CC(=O)[C@H](C)/C=C(\C)[C@@H](O)[C@@H](OC)C(=O)[C@H](C)C[C@H](C)/C=C/C=C/C=C/1C
0.993

Fill in reported fractional viability for this entry: Cc1c(N)nc([C@H](CC(N)=O)NC[C@H](N)C(N)=O)nc1C(=O)N[C@H](C(=O)N[C@H](C)[C@@H](O)[C@H](C)C(=O)N[C@H](C(=O)NCCc1nc(-c2nc(C(=O)NCCC[S+](C)C)cs2)cs1)[C@@H](C)O)[C@@H](OC1OC(CO)C(O)C(O)C1OC1OC(CO)C(O)C(OC(N)=O)C1O)c1cnc[nH]1 (stereo partly drawn)
0.987

Fill in reported fractional viability for this entry: O=C(CCCCCCC(=O)Nc1ccccc1)NO
0.973

Fill in reported fractional viability for this entry: CN(C)CC[C@H](CSc1ccccc1)Nc1ccc(S(=O)(=O)NC(=O)c2ccc(N3CCN(Cc4ccccc4-c4ccc(Cl)cc4)CC3)cc2)cc1[N+](=O)[O-]
0.954

Fill in reported fractional viability for this entry: CC(=O)O[C@@]12CO[C@@H]1C[C@H](O)[C@@]1(C)C(=O)[C@H](O)C3=C(C)[C@@H](OC(=O)[C@H](O)[C@@H](NC(=O)OC(C)(C)C)c4ccccc4)C[C@@](O)([C@@H](OC(=O)c4ccccc4)[C@H]21)C3(C)C
0.323

###

- Test system: U2OS
- EXPERIMENTAL DETAILS: drug GRADE (percent of response due to cell death) (% (0-100)); higher = more death-driven response
- CONDITION CONTEXT: 72 h
Classify on drug GRADE using group 1 = under 20, group 2 = from 20 up to 40, group 3 = 40 and over

Band for the recorded drug GRADE of CNc1ccc2oc(C[C@H]3O[C@@]4(CC[C@H]3C)O[C@H]([C@H](C)C(=O)c3ccc[nH]3)[C@H](C)C[C@H]4C)nc2c1C(=O)O ?
group 2

Band for the recorded drug GRADE of C#Cc1cccc(Nc2ncnc3cc(OCCOC)c(OCCOC)cc23)c1 ?
group 3

Band for the recorded drug GRADE of Cc1ccc(C(=O)N(CCCN)[C@@H](c2oc3cc(Cl)ccc3c(=O)c2Cc2ccccc2)C(C)C)cc1 ?
group 3

Band for the recorded drug GRADE of N.N.[Cl][Pt][Cl] [Cisplatin] ?
group 1

Band for the recorded drug GRADE of Cc1nc(Nc2ncc(C(=O)Nc3c(C)cccc3Cl)s2)cc(N2CCN(CCO)CC2)n1 ?
group 2
